tested on: Streptococcus pneumoniae; assay: Antibacterial activity against Levofloxacin susceptible Streptococcus pneumoniae by broth dilution method; type: functional
Value Type: MIC50
Reply with a number, then the unit it belongs to.

Record request: MIC50 value, item CN(C)c1cc(NC(=O)CNC(C)(C)C)c(O)c2c1C[C@H]1C[C@H]3[C@H](N(C)C)C(O)=C(C(N)=O)C(=O)[C@@]3(O)C(O)=C1C2=O [TIGECYCLINE] 0.03 µg/mL

Record request: MIC50 value, item CO/N=C(\C(=O)N[C@@H]1C(=O)N2C(C(=O)O)=C(CSc3nc(=O)c(O)nn3C)CS[C@H]12)c1csc(N)n1 [CEFTRIAXONE] 1 µg/mL

Record request: MIC50 value, item C[C@H]1COc2c(N3CCN(C)CC3)c(F)cc3c(=O)c(C(=O)O)cn1c23.C[C@H]1COc2c(N3CCN(C)CC3)c(F)cc3c(=O)c(C(=O)O)cn1c23.O [LEVOFLOXACIN] 1 µg/mL

Record request: MIC50 value, item CN[C@H](CC(C)C)C(=O)N[C@H]1C(=O)N[C@@H](CC(N)=O)C(=O)N[C@H]2C(=O)N[C@H]3C(=O)N[C@H](C(=O)N[C@H](C(=O)O)c4cc(O)cc(O)c4-c4cc3ccc4O)[C@H](O)c3ccc(c(Cl)c3)Oc3cc2cc(c3O[C@@H]2O[C@H](CO)[C@@H](O)[C@H](O)[C@H]2O[C@H]2C[C@](C)(N)[C@H](O)[C@H](C)O2)Oc2ccc(cc2Cl)[C@H]1O [VANCOMYCIN] 0.5 µg/mL

Record request: MIC50 value, item CC(=O)NC[C@H]1CN(c2ccc(N3CCOCC3)c(F)c2)C(=O)O1 [LINEZOLID] 1 µg/mL

Record request: MIC50 value, item COc1c(N2C[C@@H](C)C[C@H](N)C2)ccc2c(=O)c(C(=O)O)cn(C3CC3)c12.O=C(O)CC(O)C(=O)O [NEMONOXACIN MALIC ACID] 0.12 µg/mL
